Ref: PubChem BioAssay (EPA / NIEHS)

Test: BSK_SAg_SRB: Viability Assessment in the BioMAP Diversity Plus: SAg Assay (AID 2283096);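 also: cells read one day after compound addition; hits may be either gain or loss of signal compared with DMSO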
Conditions: primary human HUVEC with PBMC
Activity calls are given as the source filed them. The calls were made as follows: active = hit-call score of the fitted dose curve at least 0.9, where 1 is the maximum; inactive = score below 0.9.
Outcomes: Yes (active), No (inactive)

[[record]]
molecule = "CC1(C)C(C=C(Cl)Cl)C1C(=O)OC(C#N)c1ccc(F)c(Oc2ccccc2)c1 (configuration not stated)"
group = "Yes"

[[record]]
molecule = "Cc1[nH]c(=O)n(C(C)(C)C)c(=O)c1Cl"
group = "No"

[[record]]
molecule = "CCCN(CCOc1c(Cl)cc(Cl)cc1Cl)C(=O)n1ccnc1"
group = "No"

[[record]]
molecule = "CCC(C)(NC(=O)c1cc(Cl)c(C)c(Cl)c1)C(=O)CCl (configuration not stated)"
group = "Yes"

[[record]]
molecule = "O=[N+]([O-])/N=C1\\NCCN1Cc1ccc(Cl)nc1"
group = "No"

[[record]]
molecule = "CCc1ccc(C(=O)NN(C(=O)c2cc(C)cc(C)c2)C(C)(C)C)cc1"
group = "No"

[[record]]
molecule = "O=C(Nc1ccccc1)Nc1cnns1"
group = "No"

[[record]]
molecule = "O=S(=O)(O)C(F)(F)C(F)(F)C(F)(F)C(F)(F)C(F)(F)C(F)(F)C(F)(F)C(F)(F)F"
group = "No"

[[record]]
molecule = "CCOCN(C(=O)CCl)c1c(C)cccc1CC"
group = "Yes"

[[record]]
molecule = "COP(=S)(OC)Oc1ccc(SC)c(C)c1"
group = "No"

[[record]]
molecule = "CCOC1Oc2ccc(OS(C)(=O)=O)cc2C1(C)C (configuration not stated)"
group = "No"

[[record]]
molecule = "CCOc1nc(NC)nc(NC(=O)NS(=O)(=O)c2ccccc2C(=O)OC)n1"
group = "No"

[[record]]
molecule = "CNC(=O)Oc1ccccc1OC(C)C"
group = "No"

[[record]]
molecule = "COP(=O)(OC)OC=C(Cl)Cl"
group = "No"

[[record]]
molecule = "CC(C)(C)C(O)C(Oc1ccc(Cl)cc1)n1cncn1 (configuration not stated)"
group = "No"

[[record]]
molecule = "CC(C)OC(=O)Nc1cccc(Cl)c1"
group = "Yes"

[[record]]
molecule = "COc1cc(OC)nc(NC(=O)NS(=O)(=O)c2cc(NC=O)ccc2C(=O)N(C)C)n1"
group = "No"


----------
Target: Estrogen receptor beta (Homo sapiens) (UniProt Q92731)
Sequence (Q92731 whole entry, looked up, the tested form may be a part): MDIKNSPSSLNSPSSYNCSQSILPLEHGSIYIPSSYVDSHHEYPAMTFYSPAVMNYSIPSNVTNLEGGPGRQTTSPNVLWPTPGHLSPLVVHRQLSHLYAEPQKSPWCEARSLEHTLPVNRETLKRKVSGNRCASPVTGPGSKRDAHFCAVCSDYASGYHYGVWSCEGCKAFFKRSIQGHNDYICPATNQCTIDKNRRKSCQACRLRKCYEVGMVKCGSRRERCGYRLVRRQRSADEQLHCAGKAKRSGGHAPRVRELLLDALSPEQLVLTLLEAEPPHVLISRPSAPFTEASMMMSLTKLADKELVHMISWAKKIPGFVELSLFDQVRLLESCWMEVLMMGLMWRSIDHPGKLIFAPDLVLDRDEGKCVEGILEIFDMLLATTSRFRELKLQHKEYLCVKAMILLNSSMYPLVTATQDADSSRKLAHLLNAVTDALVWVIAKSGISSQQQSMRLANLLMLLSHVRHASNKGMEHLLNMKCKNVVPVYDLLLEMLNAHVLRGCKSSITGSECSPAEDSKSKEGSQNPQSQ
Assay: OT_ER_ERbERb_1440: Odyssey Thera (OT) 24-hour HEK293T Protein-Complementation Assay for Estrogen Receptor-beta/-beta Homodimer (AID 2283380);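 also: fluorescence gain from ER beta LBD homodimer complementation read by laser scanning cytometry; scored as signal increase over DMSO baseline for both agonists and antagonists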
Activity calls are given as the source filed them. How the source made its calls: active means hit-call score of the fitted dose curve at least 0.9, where 1 is the maximum; inconclusive means response in the unintended direction; inactive means score below 0.9.
Outcomes: 1 (yes) (active), 0 (no) (inactive)

[[record]]
compound = "N#CN"
group = "0 (no)"

[[record]]
compound = "O=C(NC(=O)c1c(F)cccc1F)Nc1ccc(OC(F)(F)C(F)OC(F)(F)F)c(Cl)c1 (configuration not stated)"
group = "0 (no)"

[[record]]
compound = "CC1(c2ccc(Oc3ccccc3)cc2)OC(=O)N(Nc2ccccc2)C1=O (configuration not stated)"
group = "0 (no)"

[[record]]
compound = "CCCN(CCOc1c(Cl)cc(Cl)cc1Cl)C(=O)n1ccnc1"
group = "0 (no)"

[[record]]
compound = "CNC(=O)Oc1ccccc1OC(C)C"
group = "0 (no)"

[[record]]
compound = "CC1(C)C(C=C(Cl)Cl)C1C(=O)OC(C#N)c1ccc(F)c(Oc2ccccc2)c1 (configuration not stated)"
group = "0 (no)"

[[record]]
compound = "Oc1cc(Cl)ccc1Oc1ccc(Cl)cc1Cl"
group = "0 (no)"

[[record]]
compound = "CNC(=O)CSP(=S)(OC)OC"
group = "0 (no)"

[[record]]
compound = "CC(C)(C)C(O)C(Oc1ccc(Cl)cc1)n1cncn1 (configuration not stated)"
group = "1 (yes)"

[[record]]
compound = "O=[N+]([O-])/N=C1\\NCCN1Cc1ccc(Cl)nc1"
group = "0 (no)"

[[record]]
compound = "N#Cc1c(Cl)c(Cl)c(Cl)c(C#N)c1Cl"
group = "1 (yes)"

[[record]]
compound = "Oc1ccc(Cl)cc1Cc1ccccc1"
group = "1 (yes)"

